# credit: patent US20240254220A1

ASSAYED_SYSTEM: T1, CD300c antigen (11832-H08H, Sino Biological) (human, UniProt Q08708 21-183)
T1 construct: Bought antigen; also called CD300c protein; CD300 antigen-like family member C
T1 sequence (looked up): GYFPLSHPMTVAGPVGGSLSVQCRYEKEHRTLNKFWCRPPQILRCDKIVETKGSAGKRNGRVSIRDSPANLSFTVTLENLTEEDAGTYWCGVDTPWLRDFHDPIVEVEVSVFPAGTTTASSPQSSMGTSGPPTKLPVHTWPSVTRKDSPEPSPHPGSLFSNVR
PROTOCOL_NOTES: binding ELISA, plate coated with CD300c antigen (8 µg/mL), HRP anti-Fc IgG detection
MEASURE: EC50 (µg/mL)
Note: unit µg/mL is implicit; provide only the numeric part.

Request: What EC50 value was documented for this binder, CL6 (antibody, V domains shown, also called anti-CD300c monoclonal antibody CL6; CB301 antibody CL6) VH: EVQLLESGGGLVQPGGSLRLSCAASGFTFSSYGMHWVRQAPGKGLEWVSAISGSGGSTYYADSVKGRFTISRDNSKNTLYLQMNSLRAEDTAVYYCAVSGAGRGFFDYWGQGTLVTVSS VL: QSVLTQPPSASGTPGQRVTISCSGSSSNIGSNYVYWYQQLPGTAPKLLIYEDNKRPSGVPDRFSGSKSGTSASLAISGLRSEDEADYYCSSYTSSSTVIFGGGTKLTVL ?
Result: 0.148
